- System: Rattus norvegicus
- RUN_DESCRIPTION: Tested for intravenous anti-vasopressor pA2 effect in rats
- Assay type: functional, organism-based
- MEASUREMENT_CONTEXT: Rattus norvegicus; read-out: pA2 (converted)
Starred links: 1 amine or outer side, 2 acyl side, 3 side chain; linkers in the order of their positions; H or OH if unused. Positions of bridges follow the written chain, without caps; N, C: chain ends. Non-standard residues stand in square brackets, D forms with d. Residues, ends and D or L forms follow the SMILES beside them. X2 = CC(C)(CC(=O)[*:1])S[*:2]; Mpa = O=C(O)CCS
Overview of recorded Kb for various compounds
The reply should contain only the number, in µM.

Some compounds with known Kb results, for comparison:
[
  {
    "COMPOUND": "CC(C)[C@@H]1NC(=O)[C@H](Cc2ccccc2)NC(=O)[C@H](Cc2ccc(O)cc2)NC(=O)CCSSC[C@@H](C(=O)N2CCC[C@H]2C(=O)N[C@H](CCCNC(=N)N)C(=O)NCC(N)=O)NC(=O)[C@H](CC(N)=O)NC1=O ([Mpa]YFVNCP[dR]G-NH2; disulfide 1-6)",
    "MEASUREMENT_UNIT": "µM",
    "Kb": 0.0933
  },
  {
    "COMPOUND": "CC(C)[C@@H]1NC(=O)[C@H](Cc2ccccc2)NC(=O)[C@H](Cc2ccc(O)cc2)NC(=O)CC(C)(C)SSC[C@@H](C(=O)N2CCC[C@H]2C(=O)N[C@H](CCCN=C(N)N)C(=O)NCC(N)=O)NC(=O)[C@H](CC(N)=O)NC1=O (YFVNCP[dR]G-NH2; linker N-5 via X2)",
    "MEASUREMENT_UNIT": "µM",
    "Kb": 0.0151
  }
]

Please turn your attention to the following entry.
Exercise: # lookup: Kb of COc1ccc(C[C@@H]2NC(=O)CC(C)(C)SSC[C@@H](C(=O)N3CCC[C@H]3C(=O)N[C@@H](CCCN=C(N)N)C(=O)NCC(N)=O)NC(=O)[C@H](CC(N)=O)NC(=O)[C@H](CCC(N)=O)NC(=O)[C@H](Cc3ccccc3)NC2=O)cc1 (Y(Me)FQNCPRG-NH2; linker N-5 via X2)
Key: 0.0204

====

Overview of recorded Kb for various molecules
- Tested on: Rattus norvegicus
- RUN_DESCRIPTION: Tested for intravenous anti-vasopressor pA2 effect in rats
- Assay type: functional, organism-based
- MEASUREMENT_CONTEXT: Rattus norvegicus; read-out: pA2 (converted)
Starred links: 1 amine or outer side, 2 acyl side, 3 side chain; linkers in the order of their positions; H or OH if unused. Positions of bridges follow the written chain, without caps; N, C: chain ends. Non-standard residues stand in square brackets, D forms with d. Residues, ends and D or L forms follow the SMILES beside them. X1 = O=C(CC1(S[*:2])CCCCC1)[*:1]; X2 = CC(C)(CC(=O)[*:1])S[*:2]
The reply should contain only the number, in nM.

Some molecules with known Kb results, for comparison:
[
  {
    "MOLECULE": "NC(=O)CC[C@@H]1NC(=O)[C@H](Cc2ccccc2)NC(=O)[C@H](Cc2ccc(O)cc2)NC(=O)CC2(CCCCC2)SSC[C@@H](C(=O)N2CCC[C@H]2C(=O)N[C@@H](CCCN=C(N)N)C(=O)NCC(N)=O)NC(=O)[C@H](CC(N)=O)NC1=O (YFQNCPRG-NH2; linker N-5 via X1)",
    "Kb, nM": 4.47
  },
  {
    "MOLECULE": "CC1(C)CC(=O)N[C@@H](Cc2ccc(O)cc2)C(=O)N[C@@H](Cc2ccccc2)C(=O)N[C@@H](CCC(N)=O)C(=O)N[C@@H](CC(N)=O)C(=O)N[C@H](C(=O)N2CCC[C@H]2C(=O)N[C@@H](CCCN=C(N)N)C(=O)NCC(N)=O)CSS1 (YFQNCPRG-NH2; linker N-5 via X2)",
    "Kb, nM": 35.5
  },
  {
    "MOLECULE": "CC(C)[C@@H]1NC(=O)[C@H](Cc2ccccc2)NC(=O)[C@H](Cc2ccc(O)cc2)NC(=O)CC2(CCCCC2)SSC[C@@H](C(=O)N2CCC[C@H]2C(=O)N[C@H](CCCN=C(N)N)C(=O)NCC(N)=O)NC(=O)[C@H](CC(N)=O)NC1=O (YFVNCP[dR]G-NH2; linker N-5 via X1)",
    "Kb, nM": 20.9
  }
]

Please turn your attention to the following entry.
Exercise: # lookup: Kb of COc1ccc(C[C@@H]2NC(=O)CC3(CCCCC3)SSC[C@@H](C(=O)N3CCC[C@H]3C(=O)N[C@@H](CCCN=C(N)N)C(=O)NCC(N)=O)NC(=O)[C@H](CC(N)=O)NC(=O)[C@H](CCC(N)=O)NC(=O)[C@H](Cc3ccccc3)NC2=O)cc1 (Y(Me)FQNCPRG-NH2; linker N-5 via X1)
Key: 2.4
